This collection of values is drawn from ChEMBL document CHEMBL1149662.

Readings of Ki for the listed compounds
biological target: Melanocortin receptor 5 (Homo sapiens, UniProt P33032); experiment: Displacement of [125I]NDP-MSH from human recombinant MC5 receptor expressed in Sf9 cells
Sequence (P33032 whole entry): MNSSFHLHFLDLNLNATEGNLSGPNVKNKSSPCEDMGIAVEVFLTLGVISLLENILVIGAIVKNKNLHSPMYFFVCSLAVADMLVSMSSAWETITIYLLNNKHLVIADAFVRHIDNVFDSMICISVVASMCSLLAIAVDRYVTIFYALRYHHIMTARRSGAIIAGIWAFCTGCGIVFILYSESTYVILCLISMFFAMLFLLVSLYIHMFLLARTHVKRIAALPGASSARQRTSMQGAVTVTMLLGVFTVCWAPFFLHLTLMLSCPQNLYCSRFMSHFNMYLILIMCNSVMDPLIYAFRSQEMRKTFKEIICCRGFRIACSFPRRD

COMPOUND	Ki
NCCCCCCCCN(C/C=C/c1ccccc1)C(=O)CCc1c[nH]c2ccccc12	40 µM
NCCCCCN(Cc1ccc2ccccc2c1)C(=O)CCCc1c[nH]c2ccccc12	34 µM
NCCCCCN(C(=O)Cc1c[nH]c2ccccc12)C1CCCCCC1	35 µM
Cc1ccccc1CN(C(=O)CCCc1c[nH]c2ccccc12)C1CCC(CC2CCC(N)CC2)CC1 (stereo not drawn)	15 µM
C=C(Br)CN(C(=O)CCCc1c[nH]c2ccccc12)C1CCC(CC2CCC(N)CC2)CC1 (stereo in doubt; form 2)	9.4 µM
NCCN(C(=O)Cc1ccc2ccccc2c1)C1CCc2ccccc2C1 (stereo not drawn)	25 µM
NCC1CCC(CN(C/C(Cl)=C/c2ccccc2)C(=O)CCCc2c[nH]c3ccccc23)CC1 (stereo not drawn)	11 µM
COC(=O)c1ccc(CN(C(=O)CCCc2c[nH]c3ccccc23)C2CCC(CC3CCC(N)CC3)CC2)cc1 (stereo not drawn)	9.6 µM
NCCCN1CCN(CCCN(C/C(Cl)=C/c2ccccc2)C(=O)CCCc2c[nH]c3ccccc23)CC1	6.6 µM
NCCCCCN(C(=O)COc1ccc2ccccc2c1)C1CCC2(CC=CCC2)CC1 (stereo not drawn)	8 µM
COc1cc(Br)c(CN(C(=O)CCCc2c[nH]c3ccccc23)[C@H]2CC[C@@H](C[C@H]3CC[C@@H](N)CC3)CC2)cc1OC	6.9 µM
NC1CCC(CC2CCC(N(Cc3ccccc3Cl)C(=O)CCCc3c(Cc4ccc(O)cc4)[nH]c4ccccc34)CC2)CC1 (stereo not drawn)	97 µM
NCCCCN(Cc1ccccc1)C(=O)CCCc1c[nH]c2ccccc12	20 µM
NCCCCCN(C/C=C/c1ccccc1)C(=O)CCc1c[nH]c2ccccc12	8 µM
NC1CCCC(N(Cc2ccccc2)C(=O)CCCc2c[nH]c3ccccc23)C1 (stereo not drawn)	18 µM
N#Cc1ccc(CN(C(=O)CCCc2c[nH]c3ccccc23)C2CCC(CC3CCC(N)CC3)CC2)cc1 (stereo in doubt; form 2)	3.9 µM
NCCCCCN(CCc1ccc2ccccc2c1)C(=O)Cc1c[nH]c2ccccc12	8 µM
CC1CC(CC2CCC(N(C/C(Cl)=C/c3ccccc3)C(=O)CCCc3c[nH]c4ccccc34)C(C)C2)CCC1N (stereo in doubt; form 2)	4.8 µM
